Tested on: OVCAR5
Assay comment: drug sensitivity score (DSS) from 5-point dose-response viability curve (DSS (area-under-curve based score)); higher = more sensitive (stronger growth inhibition or killing); extreme values may be limits of the assay
Condition context: exposure time: 72 h; concentration range: 5 concentrations over 10,000-fold range
Measure: drug sensitivity score

INSERT INTO results (compound, measured_result) VALUES
  ('CC(C)(C)c1cc(NC(=O)Nc2ccc(Oc3ccnc4[nH]c(=O)cnc34)cc2F)n(-c2ccccc2)n1', 1.8),
  ('CNC(=O)c1ccccc1Nc1nc(Nc2ccc3c(c2OC)CCC[C@H](N2CCN(CCO)CC2)C3)ncc1Cl', 9.1),
  ('COc1cc(C)[nH]c(=O)c1CNC(=O)c1c(C)n([C@H](C)C2CCOCC2)c2ccccc12 [CPI-360]', 0.8),
  ('CCN(c1cc(-c2ccc(CN3CCOCC3)cc2)cc(C(=O)NCc2c(C)cc(C)[nH]c2=O)c1C)C1CCOCC1 [Tazemetostat]', 0),
  ('CC(C)(C)NC(=O)[C@H]1CC[C@H]2[C@@H]3CC[C@H]4NC(=O)C=C[C@]4(C)[C@H]3CC[C@]12C [Finasteride]', 0),
  ('Oc1ccc2c(c1)CC[C@H](c1ccccc1)[C@@H]2c1ccc(OCCN2CCCC2)cc1 [Lasofoxifene]', 0),
  ('CCC/C=C/C=C/C(=O)O[C@H]1/C(=C/C(=O)OC)C[C@H]2C[C@H]([C@@H](C)O)OC(=O)C[C@H](O)C[C@@H]3C[C@H](OC(C)=O)C(C)(C)[C@](O)(C[C@@H]4C/C(=C/C(=O)OC)C[C@H](/C=C/C(C)(C)[C@]1(O)O2)O4)O3 [Bryostatin 1]', 0.2),
  ('C[C@@H]1CCN(C(=O)CC#N)C[C@@H]1N(C)c1ncnc2[nH]ccc12 [Tofacitinib]', 0.2),
  ('CC[C@]1(O)C[C@@H]2CN(CCc3c([nH]c4ccccc34)[C@@](C(=O)OC)(c3cc4c(cc3OC)N(C)[C@H]3[C@@](O)(C(=O)OC)[C@H](OC(C)=O)[C@]5(CC)C=CCN6CC[C@]43[C@@H]65)C2)C1 [Vinblastine]', 3),
  ('CN(C)C(=O)c1ccc(S(=O)(=O)c2ccc(NC(=O)[C@@](C)(O)C(F)(F)F)c(Cl)c2)cc1 [AZD7545]', 0),
  ('CCC(C)(C)C(=O)O[C@H]1C[C@@H](C)C=C2C=C[C@H](C)[C@H](CC[C@@H]3C[C@@H](O)CC(=O)O3)[C@H]21 [Simvastatin]', 0),
  ('CN(C)Cc1c(C(=O)NCCOc2ccc(C(=O)NO)cc2)oc2ccccc12 [Abexinostat]', 21.7),
  ('CCCC(CCC)C(=O)O [Valproic acid]', 0),
  ('CCOc1ccn(-c2ccc(F)cc2)c(=O)c1C(=O)Nc1ccc(Oc2ccnc(N)c2Cl)c(F)c1', 0);

* * *

Tested on: Kuramochi
Assay comment: drug sensitivity score (DSS) from 5-point dose-response viability curve (DSS (area-under-curve based score)); higher = more sensitive (stronger growth inhibition or killing); extreme values may be limits of the assay
Condition context: exposure time: 72 h; concentration range: 5 concentrations over 10,000-fold range
Measure: drug sensitivity score

INSERT INTO assay_data (smiles_notation, tested_on, measured_result) VALUES
  ('Cc1ccc(=O)n(-c2ccccc2)c1', 'Kuramochi', 0),
  ('Nc1ccccc1NC(=O)c1ccc(CNc2nccc(-c3cccnc3)n2)cc1', 'Kuramochi', 7),
  ('CC[C@@H]1[C@H](F)C(=O)N[C@@H]1COc1nccc2cc(C(N)=O)c(OC)cc12', 'Kuramochi', 1.8),
  ('CN[C@@H]1C[C@H]2O[C@@](C)([C@@H]1OC)n1c3ccccc3c3c4c(c5c6ccccc6n2c5c31)C(=O)N[C@H]4O', 'Kuramochi', 14.6),
  ('OC[C@H]1O[C@@H](n2cnc3c2N=CNC[C@H]3O)C[C@@H]1O', 'Kuramochi', 0),
  ('CS(=O)(=O)CCNCc1ccc(-c2ccc3ncnc(Nc4ccc(OCc5cccc(F)c5)c(Cl)c4)c3c2)o1', 'Kuramochi', 0),
  ('COc1cccc2c1c(O)c(C(=O)N(C)c1ccc(C(F)(F)F)cc1)c(=O)n2C', 'Kuramochi', 0.2),
  ('C[C@H]1CNCCCN1S(=O)(=O)c1cccc2cncc(F)c12', 'Kuramochi', 0),
  ('Cc1c(Cn2c(C)nc3c(C(=O)O)cc(N4CCOCC4)cc32)cccc1C(F)(F)F', 'Kuramochi', 3.7);

Data provenance: the supplement of paper PMC11616607
